Source listed as patent US20060067886A1.

Each entry below carries its reported Avg % ID, Pancreas.
Test: Biodistribution of radiometal-DOTA-BBN conjugates in CF1 normal mice
Details: 1 hour post-injection
Dear colleague, please return just the value in % ID, with no unit written.

Study these solved cases before continuing.
Molecule	Quantity kind	Output unit	Recorded number
CSCC[C@H](NC(=O)[C@H](CC(C)C)NC(=O)[C@H](Cc1cnc[nH]1)NC(=O)CNC(=O)[C@@H](NC(=O)[C@H](C)NC(=O)[C@H](Cc1c[nH]c2ccccc12)NC(=O)[C@H](CCC(N)=O)NC(=O)CCCCCCCNC(=O)CN1CCN(CC(=O)O)CCN(CC(=O)O)CCN(CC(=O)O)CC1)C(C)C)C(N)=O [149Pm-DOTA-8-Aoc-BBN[7-14]NH2]	Avg % ID, Pancreas	% ID	7.34
CSCC[C@H](NC(=O)[C@H](CC(C)C)NC(=O)[C@H](Cc1c[nH]cn1)NC(=O)CNC(=O)[C@@H](NC(=O)[C@H](C)NC(=O)[C@H](Cc1c[nH]c2ccccc12)NC(=O)[C@H](CCC(N)=O)NC(=O)CCCCCCCCCCNC(=O)CN1CCN(CC(=O)O)CCN(CC(=O)O)CCN(CC(=O)O)CC1)C(C)C)C(N)=O [177Lu-DOTA-11-Aun-BBN[7-14]NH2] [metal not drawn]	Avg % ID, Pancreas	% ID	6.89

Q. // lookup Avg % ID, Pancreas for CSCC[C@H](NC(=O)[C@H](CC(C)C)NC(=O)[C@H](Cc1c[nH]cn1)NC(=O)CNC(=O)[C@@H](NC(=O)[C@H](C)NC(=O)[C@H](Cc1c[nH]c2ccccc12)NC(=O)[C@H](CCC(N)=O)NC(=O)CCCCNC(=O)CN1CCN(CC(=O)O)CCN(CC(=O)O)CCN(CC(=O)O)CC1)C(C)C)C(N)=O [149Pm-DOTA-5-Ava-BBN[7-14]NH2]
A. 4.25

----------
Assay: Biodistribution of radiometal-DOTA-BBN conjugates in CF1 normal mice
Conditions: 1 hour post-injection
Quantity kind: Avg % ID, Stomach

Q. Look up Avg % ID, Stomach: CSCC[C@H](NC(=O)[C@H](CC(C)C)NC(=O)[C@H](Cc1cnc[nH]1)NC(=O)CNC(=O)[C@@H](NC(=O)[C@H](C)NC(=O)[C@H](Cc1c[nH]c2ccccc12)NC(=O)[C@H](CCC(N)=O)NC(=O)CCCCCCCNC(=O)CN1CCN(CC(=O)O)CCN(CC(=O)O)CCN(CC(=O)O)CC1)C(C)C)C(N)=O [149Pm-DOTA-8-Aoc-BBN[7-14]NH2]
A. 0.66 ± 0.35 % ID

Q. What does the record list as Avg % ID, Stomach for CSCC[C@H](NC(=O)[C@H](CC(C)C)NC(=O)[C@H](Cc1cnc[nH]1)NC(=O)CNC(=O)[C@@H](NC(=O)[C@H](C)NC(=O)[C@H](Cc1c[nH]c2ccccc12)NC(=O)[C@H](CCC(N)=O)NC(=O)CCNC(=O)CN1CCN(CC(=O)O)CCN(CC(=O)O)CCN(CC(=O)O)CC1)C(C)C)C(N)=O [149Pm-DOTA-β-Ala-BBN[7-14]NH2] ?
A. 0.10 ± 0.03 % ID

Q. // query Avg % ID, Stomach value for entry CSCC[C@H](NC(=O)[C@H](CC(C)C)NC(=O)[C@H](Cc1cnc[nH]1)NC(=O)CNC(=O)[C@@H](NC(=O)[C@H](C)NC(=O)[C@H](Cc1c[nH]c2ccccc12)NC(=O)[C@H](CCC(N)=O)NC(=O)CCNC(=O)CN1CCN(CC(=O)O)CCN(CC(=O)O)CCN(CC(=O)O)CC1)C(C)C)C(N)=O [177Lu-DOTA-β-Ala-BBN[7-14]NH2] [metal not drawn]
A. 0.13 ± 0.09 % ID

----------
Assay: Biodistribution of radiometal-DOTA-BBN conjugates in CF1 normal mice
Conditions: 1 hour post-injection
Quantity kind: Avg % ID/gm, Stomach

Guide cases for Avg % ID/gm, Stomach, answers given:
Compound	Avg % ID/gm, Stomach
CSCC[C@H](NC(=O)[C@H](CC(C)C)NC(=O)[C@H](Cc1cnc[nH]1)NC(=O)CNC(=O)[C@@H](NC(=O)[C@H](C)NC(=O)[C@H](Cc1c[nH]c2ccccc12)NC(=O)[C@H](CCC(N)=O)NC(=O)CCNC(=O)CN1CCN(CC(=O)O)CCN(CC(=O)O)CCN(CC(=O)O)CC1)C(C)C)C(N)=O [149Pm-DOTA-β-Ala-BBN[7-14]NH2]	0.19 ± 0.11 % ID/gm
CSCC[C@H](NC(=O)[C@H](CC(C)C)NC(=O)[C@H](Cc1cnc[nH]1)NC(=O)CNC(=O)[C@@H](NC(=O)[C@H](C)NC(=O)[C@H](Cc1c[nH]c2ccccc12)NC(=O)[C@H](CCC(N)=O)NC(=O)CCCCCCCNC(=O)CN1CCN(CC(=O)O)CCN(CC(=O)O)CCN(CC(=O)O)CC1)C(C)C)C(N)=O [177Lu-DOTA-8-Aoc-BBN[7-14]NH2] [metal not drawn]	1.41 ± 0.44 % ID/gm

Now take the following compound into account.
Q. I have this compound here, CSCC[C@H](NC(=O)[C@H](CC(C)C)NC(=O)[C@H](Cc1c[nH]cn1)NC(=O)CNC(=O)[C@@H](NC(=O)[C@H](C)NC(=O)[C@H](Cc1c[nH]c2ccccc12)NC(=O)[C@H](CCC(N)=O)NC(=O)CCCCNC(=O)CN1CCN(CC(=O)O)CCN(CC(=O)O)CCN(CC(=O)O)CC1)C(C)C)C(N)=O [111In-DOTA-5-Ava-BBN[7-14]NH2] [metal not drawn] , and I need its recorded Avg % ID/gm, Stomach.
A. 0.71 ± 0.24 % ID/gm

----------
Reported Avg % ID, Blood values for a set of compounds
Test: Biodistribution of radiometal-DOTA-BBN conjugates in CF1 normal mice
Conditions: 1 hour post-injection
Use % ID as the unit, but write only the number.

Guide cases for Avg % ID, Blood, answers given:
Compound	Output unit	Avg % ID, Blood
CSCC[C@H](NC(=O)[C@H](CC(C)C)NC(=O)[C@H](Cc1cnc[nH]1)NC(=O)CNC(=O)[C@@H](NC(=O)[C@H](C)NC(=O)[C@H](Cc1c[nH]c2ccccc12)NC(=O)[C@H](CCC(N)=O)NC(=O)CCNC(=O)CN1CCN(CC(=O)O)CCN(CC(=O)O)CCN(CC(=O)O)CC1)C(C)C)C(N)=O [177Lu-DOTA-β-Ala-BBN[7-14]NH2] [metal not drawn]	% ID	0.24
CSCC[C@H](NC(=O)[C@H](CC(C)C)NC(=O)[C@H](Cc1c[nH]cn1)NC(=O)CNC(=O)[C@@H](NC(=O)[C@H](C)NC(=O)[C@H](Cc1c[nH]c2ccccc12)NC(=O)[C@H](CCC(N)=O)NC(=O)CCCCNC(=O)CN1CCN(CC(=O)O)CCN(CC(=O)O)CCN(CC(=O)O)CC1)C(C)C)C(N)=O [149Pm-DOTA-5-Ava-BBN[7-14]NH2]	% ID	0.47

Next compound, please.
Q. # query: Avg % ID, Blood of entry CSCC[C@H](NC(=O)[C@H](CC(C)C)NC(=O)[C@H](Cc1c[nH]cn1)NC(=O)CNC(=O)[C@@H](NC(=O)[C@H](C)NC(=O)[C@H](Cc1c[nH]c2ccccc12)NC(=O)[C@H](CCC(N)=O)NC(=O)CCCCCCCCCCNC(=O)CN1CCN(CC(=O)O)CCN(CC(=O)O)CCN(CC(=O)O)CC1)C(C)C)C(N)=O [177Lu-DOTA-11-Aun-BBN[7-14]NH2] [metal not drawn]
A. 0.47

----------
# key: entry, value: Avg % ID, L. Intestine
Assay: Biodistribution of radiometal-DOTA-BBN conjugates in CF1 normal mice
Settings: 1 hour post-injection
Quick reminder: number only, in % ID, skip the unit.

Compound	Avg % ID, L. Intestine / % ID
CSCC[C@H](NC(=O)[C@H](CC(C)C)NC(=O)[C@H](Cc1cnc[nH]1)NC(=O)CNC(=O)[C@@H](NC(=O)[C@H](C)NC(=O)[C@H](Cc1c[nH]c2ccccc12)NC(=O)[C@H](CCC(N)=O)NC(=O)CCNC(=O)CN1CCN(CC(=O)O)CCN(CC(=O)O)CCN(CC(=O)O)CC1)C(C)C)C(N)=O [177Lu-DOTA-β-Ala-BBN[7-14]NH2] [metal not drawn]	0.36

Q. Using the record for CSCC[C@H](NC(=O)[C@H](CC(C)C)NC(=O)[C@H](Cc1cnc[nH]1)NC(=O)CNC(=O)[C@@H](NC(=O)[C@H](C)NC(=O)[C@H](Cc1c[nH]c2ccccc12)NC(=O)[C@H](CCC(N)=O)NC(=O)CCCCCCCNC(=O)CN1CCN(CC(=O)O)CCN(CC(=O)O)CCN(CC(=O)O)CC1)C(C)C)C(N)=O [177Lu-DOTA-8-Aoc-BBN[7-14]NH2] [metal not drawn] , report its Avg % ID, L. Intestine.
A. 4.63
